Test system: NCI-H522 lung
Experiment: NCI-60 one-dose screen, 48 h (100 = growth as untreated, 0 = no growth, -100 = all killed)
Details: 10 µM unless noted
The panel holds about 83,000 compounds, 20% with a hit somewhere; the sample as a whole holds those more often.
Use yes when the recorded growth is no lower than 60%; use no when it is lower.

>>> label_class("O=C(Nc1ccc(S(=O)(=O)NC2CCCCCC2)cc1)C(c1ccccc1)S(=O)(=O)c1ccc(F)cc1 (stereo not given)")
"no"
>>> label_class("NC(=O)c1ccc2nc3c(n2c1)C(=O)C(=O)c1ccccc1-3")
"no"
>>> label_class("Cc1ccc(SC2c3ccc(C)cc3Oc3nc(N)c(C#N)c(N)c32)cc1 (stereo not given)")
"no"
>>> label_class("O=C(NC[C@H](O)CN1CCc2ccccc2C1)c1cc(NC2COC2)ncn1")
"yes"
>>> label_class("CCCCN(CCCC)CC(CN(CC)CC)OC(=O)Nc1ccccc1 (stereo not given)")
"yes"
>>> label_class("C=CCn1c(SCC(=O)Nc2ccc(C(=O)/C=C/c3ccc(Cl)cc3)cc2)nnc1-c1cc(OC)c(OC)c(OC)c1")
"yes"
>>> label_class("Clc1ccc2c(NCCCNC3CCCCC3)ccnc2c1")
"yes"
>>> label_class("CCCCn1c(=O)c(/C=C/C(=O)/C=C/c2ccc(OC)cc2)cc2cc(Cl)ccc21")
"no"
>>> label_class("C/C(=C\\c1cnc(C)s1)[C@@H]1C[C@@H]2O[C@@H]2CCC[C@H](C)[C@H](O)[C@@H](C)C(=O)C(C)(C)[C@@H](O)CC(=O)O1")
"no"
>>> label_class("CC1(C)Cc2c(Br)c(Br)c(Br)c(OCC(O)CN3CCOCC3)c2O1 (stereo not given)")
"no"

###

Test system: OVCAR-4 ovarian
Assay: NCI-60 one-dose screen, 48 h (100 = growth as untreated, 0 = no growth, -100 = all killed)
Conditions: 10 µM unless noted
The panel holds about 83,000 compounds, 20% with a hit somewhere; the sample as a whole holds those more often. Activity calls are given as the source filed them. Rule for the calls: active = growth percent below 10; inactive = the rest.
Quantity name: growth

>>> result("O=C(NCc1ccccc1)c1ccc2c(c1)NC(=O)[C@@H]1CCCN21")
"112% (inactive)"
>>> result("O=C(Nc1ccc2ncnc(Nc3cccc(C(F)(F)F)c3)c2c1)c1cccs1")
"33.1% (inactive)"
>>> result("Cc1cccc(C)c1NCc1nnc(-c2ccco2)o1")
"101% (inactive)"
>>> result("Nc1c(C(=O)Nc2ccccn2)sc2nc3c(cc12)CCCC3")
"74.9% (inactive)"
>>> result("OCCNc1nc(NCCO)nc(Nc2ccc(C3=NN(c4ccc(Cl)cc4)C(c4ccc(Cl)cc4)C3)cc2)n1 (centres undefined)")
"65.6% (inactive)"
>>> result("Cc1nccc2c3ccc(OCc4cn(-c5ccc(Cl)cc5)nn4)cc3n(CC(C)C)c12")
"30.5% (inactive)"
>>> result("CCOC(=O)/C=C1\\SC(=Nc2ccc(C#N)cc2)N(CCN2C(=O)/C(=C/C(=O)OCC)SC2=Nc2ccc(C#N)cc2)C1=O")
"50.8% (inactive)"
>>> result("CCN(CC)c1ccc2c(c1)Oc1nc(N)c(C#N)c(N)c1C2Sc1ccc(OC)cc1 (centres undefined)")
"46.2% (inactive)"
>>> result("C=C1C(=O)O[C@H]2[C@H]1CC/C(COC(=O)NCc1nc3ccccc3[nH]1)=C\\CC[C@@]1(C)O[C@@H]21")
"82.7% (inactive)"
